# IC50 values compiled below
- Test system: MDA-MB-231 (ER negative) human breast cancer cells
- Test details: MTS antiproliferative/cytotoxicity assay on MDA-MB-231 cells
- Type: cell-based
- Experimental conditions: Homo sapiens, MDA-MB-231, 72 h, 72 h treatment, mean ± S.D., vs DMSO 0.5% control; read-out: MDA-MB-231 IC50
Just the number please, in µg/mL, no unit attached.

INPUT: Recorded IC50 for CCOC(=O)C(c1ccc(OCc2ccccc2)c(OC)c1)C(c1ccc(OCc2ccccc2)c(OC)c1)c1ccc(OCc2ccccc2)c(OC)c1 (stereo not shown) , please?
OUTPUT: 136

INPUT: Recorded IC50 for `COC(=O)c1cc(C(O)(c2ccc(O)c(C(=O)OC)c2)c2ccc(O)c(C(=O)OC)c2)ccc1O` , please?
OUTPUT: 93.9
